B1: Poly(rC)-binding protein 1, residues 278 to 350; numbered along this chain, Q15365 (parent)
chain: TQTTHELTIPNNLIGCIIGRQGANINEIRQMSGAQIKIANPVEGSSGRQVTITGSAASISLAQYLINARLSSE

variants of: B1; assay: abundance fitness (aPCA) (normalised: wild type 0, dead -1); higher = more abundant; growth selection in yeast, the domain comes from the species named; conditions: Homo sapiens
measuredParameter: abundance fitness
Could you keep your reply to the number by itself?

Some solved entries appear below for comparison.
N24P: -0.088
I17S: -0.733
H5I: 0.113

Supply reported abundance fitness belonging to this variant: Y64C 0.195

Supply reported abundance fitness belonging to this variant: A23H 0.102

Supply reported abundance fitness belonging to this variant: I18V -0.367

Supply reported abundance fitness belonging to this variant: N26I -0.119

Supply reported abundance fitness belonging to this variant: M31K 0.162

Supply reported abundance fitness belonging to this variant: L61G -0.504
